- Assayed system: T1, Asf1/H3.3(FL)/H4(FL) (S. cerevisiae | human | X. laevis, UniProt P32447 1-169; P84243 1-136; P62799 1-103)
- T1 construct: histone H3.3, human; also called Asf1/H3.3(FL)/H4(FL) complex; not shown: His6, N-terminal, cleaved; copies: + +
- Procedure details: ITC; 0.450 mM UBN1 injected into a cell with 30 μM H3/H4, 22 °C; 20 mM HEPES pH 7.5, 750 mM NaCl, 1 mM TCEP
- Assay conditions: both partners purified
pKd: −log10 of the molar value.
Value kind: pKd

input: Tell me measured pKd for IQDLIDMGYGYDESDSFIDNSEAYDEL (also called UBN1-HRD peptide; source: synthetic peptide (Genscript)) [UBN1(122–148) peptide] please.
output: ~4.31
